Biological target: UniProt Q9EQZ6
Sequence (Q9EQZ6 whole entry): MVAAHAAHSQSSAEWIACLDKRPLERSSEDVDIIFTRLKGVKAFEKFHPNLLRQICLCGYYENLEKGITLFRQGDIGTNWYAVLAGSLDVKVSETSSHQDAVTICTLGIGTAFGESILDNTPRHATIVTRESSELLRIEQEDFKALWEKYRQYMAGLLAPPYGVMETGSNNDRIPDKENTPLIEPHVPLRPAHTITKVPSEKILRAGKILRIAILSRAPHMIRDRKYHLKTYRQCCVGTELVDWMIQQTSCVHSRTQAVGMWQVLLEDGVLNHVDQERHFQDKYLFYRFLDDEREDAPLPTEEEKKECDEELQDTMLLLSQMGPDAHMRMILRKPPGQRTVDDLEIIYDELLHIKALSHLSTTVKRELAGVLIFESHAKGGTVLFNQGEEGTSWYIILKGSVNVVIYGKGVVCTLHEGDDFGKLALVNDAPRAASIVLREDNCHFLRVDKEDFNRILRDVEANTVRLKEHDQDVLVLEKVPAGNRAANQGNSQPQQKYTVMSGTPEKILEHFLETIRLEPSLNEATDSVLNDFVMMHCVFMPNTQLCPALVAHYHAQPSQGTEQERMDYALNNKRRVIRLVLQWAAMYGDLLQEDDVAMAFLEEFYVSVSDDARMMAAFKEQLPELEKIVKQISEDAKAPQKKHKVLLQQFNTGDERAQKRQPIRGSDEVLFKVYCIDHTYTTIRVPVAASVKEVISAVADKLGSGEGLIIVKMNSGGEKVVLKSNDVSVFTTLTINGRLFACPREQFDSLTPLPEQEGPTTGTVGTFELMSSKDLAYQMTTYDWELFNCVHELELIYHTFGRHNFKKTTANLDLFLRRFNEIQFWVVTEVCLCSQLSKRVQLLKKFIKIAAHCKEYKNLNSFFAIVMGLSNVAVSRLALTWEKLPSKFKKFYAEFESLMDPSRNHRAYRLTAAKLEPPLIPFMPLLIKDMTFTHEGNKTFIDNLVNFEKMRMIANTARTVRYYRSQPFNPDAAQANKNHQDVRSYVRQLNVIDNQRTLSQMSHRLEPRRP
Record form. Attribute: IC50. Fill in for each entry.
Just the number please, in µM, no unit attached.

# IC50 (molecule: N#C/C(=N\Nc1cc(Cl)cc(C(F)(F)F)c1)C(=O)c1cc(-c2ccco2)on1 ) is 2.2

Record summary for COc1ccc(-c2cc(C(=O)/C(C#N)=N/Nc3ccc(Cl)c(C(F)(F)F)c3)no2)cc1 : reported IC50 = 4.5

Entry under test: N#C/C(=N\Nc1ccc(Cl)c(C(F)(F)F)c1)C(=O)c1noc2ccccc12 . Its IC50 was 1.9

Note to self: IC50 recorded for N#C/C(=N\Nc1ccc(Cl)c(C(F)(F)F)c1)C(=O)c1cc(-c2ccco2)on1 was 2.3

Consider N#C/C(=N\Nc1ccc(C(F)(F)F)c(Cl)c1)C(=O)c1noc2ccccc12 . Its measured IC50 is 2.2

COc1ccc(-c2cc(C(=O)/C(C#N)=N/Nc3cc(C(F)(F)F)cc(C(F)(F)F)c3)no2)cc1 yielded IC50 of 7

Just so you know, measured IC50 for N#C/C(=N\Nc1cc(C(F)(F)F)cc(C(F)(F)F)c1)C(=O)c1cc(-c2ccccc2)on1 came out at 3.3

Summary for this molecule, CC(C)(C)c1ccc(-c2cc(C(=O)/C(C#N)=N/Nc3ccc(Cl)c(C(F)(F)F)c3)no2)cc1 : IC50 is 2.2

Entry N#C/C(=N\Nc1cc(Cl)cc(C(F)(F)F)c1)C(=O)c1noc2ccccc12 — recorded IC50 = 2.2

Noted for N#C/C(=N\Nc1ccc(Cl)c(C(F)(F)F)c1)C(=O)c1cc(-c2ccccc2)on1 : its IC50 reads 2.3

From: ChEMBL document CHEMBL4020713
